Values from paper PMC12024264

System: K. pneumoniae 1711
Test: Antibiotic resistance profile of clinical isolate (Table S1)
Assay type: cell-based, Klebsiella pneumoniae
Settings: Klebsiella pneumoniae; Table S1, K. pneumoniae 1711; read-out: MIC
Collected MIC values appear next to each entry.

The examples below pair each entry with its known result.
>  <Molecular String>
CC(C)(O/N=C(\C(=O)N[C@@H]1C(=O)N2C(C(=O)[O-])=C(C[n+]3ccccc3)CS[C@H]12)c1csc(N)n1)C(=O)O

>  <Assay System>
K. pneumoniae 1711

>  <MIC>
> 16 µg/mL

$$$$
>  <Molecular String>
NC[C@H]1O[C@H](O[C@H]2[C@H](O)[C@@H](O[C@H]3O[C@H](CO)[C@@H](O)[C@H](N)[C@H]3O)[C@H](N)C[C@@H]2N)[C@H](N)C[C@@H]1O

>  <Assay System>
K. pneumoniae 1711

>  <MIC>
> 4 µg/mL

$$$$

Q: Give its MIC value. Item: "C[C@@H](O)[C@H]1C(=O)N2C(C(=O)O)=C(SCCN=CN)C[C@H]12"
Ans: > 8 µg/mL

Q: Try the compound "C[C@H]1COc2c(N3CCN(C)CC3)c(F)cc3c(=O)c(C(=O)O)cn1c23"
Ans: > 1 µg/mL

###

System: E. coli 1441
Test: Antibiotic resistance profile of clinical isolate (Table S1); also: key: S: Sensible; I: Intermediate; R: Resistant
Assay type: cell-based, Escherichia coli
Settings: Table S1, E. coli 1441
Measurement Label: Interpretation

The examples below pair each entry with its known result.
>  <Molecular String>
C[C@@H](O)[C@H]1C(=O)N2C(C(=O)O)=C(S[C@@H]3CN[C@H](C(=O)N(C)C)C3)[C@H](C)[C@H]12

>  <Interpretation>
S

$$$$
>  <Molecular String>
NC[C@H]1O[C@H](O[C@H]2[C@H](O)[C@@H](O[C@H]3O[C@H](CO)[C@@H](O)[C@H](N)[C@H]3O)[C@H](N)C[C@@H]2N)[C@H](N)C[C@@H]1O

>  <Interpretation>
S

$$$$
>  <Molecular String>
CC(C)(O/N=C(\C(=O)N[C@@H]1C(=O)N2C(C(=O)[O-])=C(C[n+]3ccccc3)CS[C@H]12)c1csc(N)n1)C(=O)O

>  <Interpretation>
R

$$$$
>  <Molecular String>
C[C@@H]1O[C@@H]1P(=O)(O)O

>  <Interpretation>
S

$$$$
>  <Molecular String>
NCC[C@H](O)C(=O)N[C@@H]1C[C@H](N)[C@@H](O[C@H]2O[C@H](CN)[C@@H](O)[C@H](O)[C@H]2O)[C@H](O)[C@H]1O[C@H]1O[C@H](CO)[C@@H](O)[C@H](N)[C@H]1O

>  <Interpretation>
S

$$$$
>  <Molecular String>
C[C@H]1COc2c(N3CCN(C)CC3)c(F)cc3c(=O)c(C(=O)O)cn1c23

>  <Interpretation>
S

$$$$
>  <Molecular String>
CO/N=C(\C(=O)N[C@@H]1C(=O)N2C(C(=O)O)=C(COC(N)=O)CS[C@H]12)c1ccco1

>  <Interpretation>
R

$$$$
>  <Molecular String>
CO/N=C(\C(=O)N[C@@H]1C(=O)N2C(C(=O)O)=C(CSc3nc(=O)c(=O)[nH]n3C)CS[C@H]12)c1csc(N)n1

>  <Interpretation>
R

$$$$

Q: Give its Interpretation value. Item: "CC1(C)S[C@@H]2[C@H](NC(=O)[C@H](N)c3ccccc3)C(=O)N2[C@H]1C(=O)O"
Ans: R

Q: Try the compound "CN(C)c1cc(NC(=O)CNC(C)(C)C)c(O)c2c1C[C@H]1C[C@H]3[C@H](N(C)C)C(O)=C(C(N)=O)C(=O)[C@@]3(O)C(O)=C1C2=O"
Ans: S
